biological target: human ether-à-go-go-related gene (hERG) potassium channel (human, UniProt Q12809); experiment: primary screen, population patch clamp on CHO cells stably expressing hERG; higher = less effect of the substance;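 note: peak tail current of the secondary pulse compared with the same well before compound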
Sequence (Q12809 whole entry, looked up): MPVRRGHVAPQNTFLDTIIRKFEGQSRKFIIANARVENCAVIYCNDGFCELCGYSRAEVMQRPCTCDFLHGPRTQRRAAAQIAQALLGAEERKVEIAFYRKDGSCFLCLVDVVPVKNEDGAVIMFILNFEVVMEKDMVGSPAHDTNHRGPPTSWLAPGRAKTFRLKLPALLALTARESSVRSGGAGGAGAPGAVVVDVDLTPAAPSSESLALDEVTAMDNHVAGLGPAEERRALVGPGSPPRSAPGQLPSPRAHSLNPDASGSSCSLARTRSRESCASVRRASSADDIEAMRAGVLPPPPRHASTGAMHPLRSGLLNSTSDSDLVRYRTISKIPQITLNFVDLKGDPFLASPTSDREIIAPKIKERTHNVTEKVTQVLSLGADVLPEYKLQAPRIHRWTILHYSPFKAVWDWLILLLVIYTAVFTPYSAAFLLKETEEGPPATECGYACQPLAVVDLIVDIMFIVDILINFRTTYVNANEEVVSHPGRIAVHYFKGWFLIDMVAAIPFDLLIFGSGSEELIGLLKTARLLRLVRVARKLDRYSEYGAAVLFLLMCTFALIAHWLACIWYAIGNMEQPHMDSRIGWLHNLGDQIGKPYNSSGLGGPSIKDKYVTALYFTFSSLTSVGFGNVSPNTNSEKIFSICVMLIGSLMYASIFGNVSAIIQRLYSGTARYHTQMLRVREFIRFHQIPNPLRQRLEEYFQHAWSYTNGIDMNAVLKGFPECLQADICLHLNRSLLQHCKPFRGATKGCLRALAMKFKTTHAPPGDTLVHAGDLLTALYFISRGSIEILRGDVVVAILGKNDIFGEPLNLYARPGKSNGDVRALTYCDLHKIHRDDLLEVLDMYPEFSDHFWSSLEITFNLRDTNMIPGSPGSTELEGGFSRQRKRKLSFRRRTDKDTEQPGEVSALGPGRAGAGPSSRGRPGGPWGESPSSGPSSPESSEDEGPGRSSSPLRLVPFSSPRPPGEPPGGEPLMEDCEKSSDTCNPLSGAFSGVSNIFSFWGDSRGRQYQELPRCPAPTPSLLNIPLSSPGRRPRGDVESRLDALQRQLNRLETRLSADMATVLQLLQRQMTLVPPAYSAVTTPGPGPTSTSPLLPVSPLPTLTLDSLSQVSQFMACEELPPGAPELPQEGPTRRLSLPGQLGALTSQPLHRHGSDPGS
In all, about 310,000 compounds went through this assay and about 14,000 (4.5%) showed an effect of 50% or more. Effects have a minus sign here. The entries come from a sample that favours strong results as a whole.
recordedMetric: hERG current change (%, negative = inhibition) at 10uM

Consider the following illustrative entries.
{"compound": "CCc1ccc2nc(N(CCN(C)C)C(=O)c3ccc4ccccc4c3)sc2c1.Cl", "measurement": "0.369%"}
{"compound": "O=c1[nH]c(=O)n(CCc2ccccc2)c(O)c1C=NCCCn1ccnc1", "measurement": "-2.66%"}
{"compound": "COCCCNc1nc2nonc2nc1N1CCN(C2CCCC2)CC1", "measurement": "-20.2%"}
{"compound": "COc1ccc2c(c1)c(C(O)CN1CCN(Cc3ccc4c(c3)OCO4)CC1)c(C)n2C (centres unmarked)", "measurement": "-11%"}
{"compound": "O=C(CN1CCN(S(=O)(=O)c2ccc(Cl)c(Cl)c2)CC1)N1CCCCC1", "measurement": "-53.5%"}

Q: For the compound shown here, O=C(CN1CCN(S(=O)(=O)c2ccccc2)CC1)N1CCCCC1 , give the reported hERG current change (%, negative = inhibition) at 10uM.
Ans: 10.8%

Q: Also, COc1ccc(OCC(O)CN2CCN(Cc3ccc4c(c3)OCO4)CC2)cc1.Cl (centres unmarked) please.
Ans: -47.4%

Q: Also, CCCS(=O)(=O)N1CCCC(C(=O)NCCN(C)Cc2ccccc2)C1 (centres unmarked) please.
Ans: -8.41%

Q: Also, CCCS(=O)(=O)N1CCCC(C(=O)NCCc2ccccc2)C1 (centres unmarked) please.
Ans: -1.02%

Q: Also, Cc1ccc2nc(N(CCN(C)C)C(=O)c3ccc4ccccc4c3)sc2c1.Cl please.
Ans: 15.9%
